molecular target: Maternal embryonic leucine zipper kinase (Homo sapiens, UniProt Q14680); assay: Inhibition of MELK (unknown origin) at 100 uM preincubated for 1 hr followed by substrate addition and measured after 1 hr by Z-lyte assay relative to control; conditions: time 2.0 hrs
Sequence (Q14680 whole entry, looked up): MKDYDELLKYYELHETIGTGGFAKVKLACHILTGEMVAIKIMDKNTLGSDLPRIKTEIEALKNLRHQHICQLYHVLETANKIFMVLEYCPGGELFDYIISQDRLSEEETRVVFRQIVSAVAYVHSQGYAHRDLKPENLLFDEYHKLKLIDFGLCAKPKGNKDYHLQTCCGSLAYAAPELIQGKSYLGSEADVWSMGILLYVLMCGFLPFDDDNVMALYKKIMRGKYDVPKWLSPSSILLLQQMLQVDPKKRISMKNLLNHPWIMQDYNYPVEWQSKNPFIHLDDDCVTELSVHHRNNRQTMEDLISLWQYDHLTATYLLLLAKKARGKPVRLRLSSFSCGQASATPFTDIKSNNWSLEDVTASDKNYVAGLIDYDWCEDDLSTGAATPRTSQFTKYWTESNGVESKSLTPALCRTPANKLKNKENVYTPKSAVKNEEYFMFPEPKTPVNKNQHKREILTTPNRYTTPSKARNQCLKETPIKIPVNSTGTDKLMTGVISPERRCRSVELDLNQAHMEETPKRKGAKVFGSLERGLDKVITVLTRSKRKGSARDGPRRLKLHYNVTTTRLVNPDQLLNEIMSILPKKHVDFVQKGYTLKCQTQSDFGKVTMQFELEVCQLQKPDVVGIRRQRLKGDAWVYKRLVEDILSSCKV
MEASUREMENT NAME: inhibition (%)
Numbers only, in %.

Known inhibition results, listed for orientation:
O=C1C=CC(=O)N1c1cc(C(F)(F)F)cc(C(F)(F)F)c1 ... 102
FC(F)(F)c1cc(N=C=S)cc(C(F)(F)F)c1 ... 94
N#C/C=C/c1cc(C(F)(F)F)cc(C(F)(F)F)c1 ... 7
CC(Br)C(=O)Nc1cc(C(F)(F)F)cc(C(F)(F)F)c1 (configuration not stated) ... 11
N#C/C(=C\c1cc(C(F)(F)F)cc(C(F)(F)F)c1)C(N)=O ... 100

State recorded inhibition for all listed compounds.
1. C=CC(=O)Oc1cc(C(F)(F)F)cc(C(F)(F)F)c1
2. O=C(CCl)Nc1cc(C(F)(F)F)cc(C(F)(F)F)c1
3. C=CC(=O)Nc1cc(C(F)(F)F)cc(C(F)(F)F)c1

Reply:
39
36
23

Take each entry in turn and give its inhibition.
1. CCOC(=O)/C=C/c1cc(C(F)(F)F)cc(C(F)(F)F)c1
2. COC(=O)C#Cc1cc(C(F)(F)F)cc(C(F)(F)F)c1
3. CC(Cl)C(=O)Nc1cc(C(F)(F)F)cc(C(F)(F)F)c1 (configuration not stated)
4. FC(F)(F)c1cc(S)cc(C(F)(F)F)c1

Reply:
63
38
37
100
